# TGT: Muscarinic acetylcholine receptor M1 (Homo sapiens, UniProt P11229)
# Sequence (P11229 whole entry): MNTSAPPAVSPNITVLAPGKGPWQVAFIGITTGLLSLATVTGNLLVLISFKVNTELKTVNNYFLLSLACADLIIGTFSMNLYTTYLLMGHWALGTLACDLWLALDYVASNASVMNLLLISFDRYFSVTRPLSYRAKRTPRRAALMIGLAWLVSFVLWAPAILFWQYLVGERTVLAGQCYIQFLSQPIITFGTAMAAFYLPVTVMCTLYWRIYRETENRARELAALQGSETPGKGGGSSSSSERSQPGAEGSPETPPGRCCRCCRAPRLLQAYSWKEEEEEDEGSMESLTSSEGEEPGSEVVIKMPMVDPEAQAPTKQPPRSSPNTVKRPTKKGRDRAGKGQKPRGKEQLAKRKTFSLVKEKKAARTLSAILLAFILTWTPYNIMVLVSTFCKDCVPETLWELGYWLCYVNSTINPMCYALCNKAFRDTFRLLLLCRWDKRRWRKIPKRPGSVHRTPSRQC
# TEST NAME: Binding affinity to saturated human muscarinic M1 expressed in CHO cells assessed as dissociation constant incubated for 2 hrs by flow cytometry
# Type: cell-based
REPORTED ENDPOINT: Kd (nM)

>  <SMILES CODE>
CC1(C)C(/C=C/C=C/C=C2/N(CCCCS(=O)(=O)O)c3ccccc3C2(C)C)=[N+](CCCCCC(=O)NCCCCCCCCN2CCC(OC(=O)Nc3ccc(F)cc3-c3ccc(F)c(Cl)c3)CC2)c2ccc(S(=O)(=O)[O-])cc21

>  <TGT>
Muscarinic acetylcholine receptor M1 (Homo sapiens, UniProt P11229)

>  <UNITS OF MEASURE>
nM

>  <Kd>
6

$$$$
>  <SMILES CODE>
CN(C)c1ccc2c(-c3ccc(-c4cn(CCCCCn5cc(CCCCCCN6CCC(COC(=O)Nc7ccc(F)cc7-c7ccc(F)c(Cl)c7)CC6)nn5)nn4)cc3C(=O)[O-])c3ccc(=[N+](C)C)cc-3oc2c1

>  <TGT>
Muscarinic acetylcholine receptor M1 (Homo sapiens, UniProt P11229)

>  <UNITS OF MEASURE>
nM

>  <Kd>
7.3

$$$$

----------
# TGT: Muscarinic acetylcholine receptor M3 (Homo sapiens)
# Sequence (P20309 whole entry): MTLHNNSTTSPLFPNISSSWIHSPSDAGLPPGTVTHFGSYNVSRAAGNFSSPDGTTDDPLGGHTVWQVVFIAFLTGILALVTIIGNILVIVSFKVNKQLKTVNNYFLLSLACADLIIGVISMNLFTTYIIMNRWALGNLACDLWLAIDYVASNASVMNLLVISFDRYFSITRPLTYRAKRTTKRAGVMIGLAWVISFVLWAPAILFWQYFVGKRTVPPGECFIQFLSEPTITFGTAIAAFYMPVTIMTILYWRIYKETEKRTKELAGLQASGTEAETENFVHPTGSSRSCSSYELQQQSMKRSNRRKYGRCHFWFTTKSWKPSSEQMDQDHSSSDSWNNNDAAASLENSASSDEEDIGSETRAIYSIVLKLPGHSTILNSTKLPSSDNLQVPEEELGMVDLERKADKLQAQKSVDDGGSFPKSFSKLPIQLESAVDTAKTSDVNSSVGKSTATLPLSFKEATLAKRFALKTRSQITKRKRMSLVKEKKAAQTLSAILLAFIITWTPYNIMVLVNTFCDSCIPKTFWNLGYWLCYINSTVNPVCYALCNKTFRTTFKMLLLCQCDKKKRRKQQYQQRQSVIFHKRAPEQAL
# TEST NAME: Displacement of [3H]N-methylscopolamine from human muscarinic M3 receptor expressed in human HEK293T cell membranes by radioligand competition binding based analysis
# Design: species or system Cell membrane
REPORTED ENDPOINT: Ki (nM)

Solved cases (4 shown):
>  <SMILES CODE>
CN(C)c1ccc2c(-c3ccc(-c4cn(CCCCCn5cc(CCCCCN6CCC(OC(=O)Nc7ccc(F)cc7-c7ccc(F)c(Cl)c7)CC6)nn5)nn4)cc3C(=O)[O-])c3ccc(=[N+](C)C)cc-3oc2c1

>  <Ki, nM>
6.8

$$$$
>  <SMILES CODE>
CC1(C)C(/C=C/C=C/C=C2/N(CCCCS(=O)(=O)O)c3ccccc3C2(C)C)=[N+](CCCCCC(=O)NCCCCCCCCN2CCC(OC(=O)Nc3ccc(F)cc3-c3ccc(F)c(Cl)c3)CC2)c2ccc(S(=O)(=O)[O-])cc21

>  <Ki, nM>
14

$$$$
>  <SMILES CODE>
CN1/C(=C/C=C/C=C/C2=[N+](CCCCCC(=O)NCCCNCCCCCCN3CCC(COC(=O)Nc4ccc(F)cc4-c4ccc(F)c(Cl)c4)CC3)c3ccccc3C2(C)C)C(C)(C)c2ccccc21

>  <Ki, nM>
7.7

$$$$
>  <SMILES CODE>
C#CCCCCCCN1CCC(OC(=O)Nc2ccc(F)cc2-c2ccc(F)c(Cl)c2)CC1

>  <Ki, nM>
1

$$$$

I: NCCCCCCCCN1CCC(OC(=O)Nc2ccc(F)cc2-c2ccc(F)c(Cl)c2)CC1
II: NCCCCCCN1CCC(COC(=O)Nc2ccc(F)cc2-c2ccc(F)c(Cl)c2)CC1
// query Would you let me know which has the greater Ki value, I or II ? Refer to your chosen item by its label in the answer.
// result I

----------
# TGT: Muscarinic acetylcholine receptor M3 (Homo sapiens)
# TEST NAME: Displacement of tiotropium bromide from human muscarinic M3 receptor expressed in CHO cells incubated for 4 hrs by flow cytometric competition binding assay
# Type: cell-based
# MEASUREMENT SETUP: read-out: Ki
pKi: −log10 of the molar value.
REPORTED ENDPOINT: pKi

>  <SMILES CODE>
CC1(C)C(/C=C/C=C/C=C2/N(CCCCS(=O)(=O)O)c3ccccc3C2(C)C)=[N+](CCCCCC(=O)NCCCCCCCCN2CCC(OC(=O)Nc3ccc(F)cc3-c3ccc(F)c(Cl)c3)CC2)c2ccc(S(=O)(=O)[O-])cc21

>  <pKi>
9.85

$$$$
>  <SMILES CODE>
CN(C)c1ccc2c(-c3ccc(-c4cn(CCCCCn5cc(CCCCCCN6CCC(COC(=O)Nc7ccc(F)cc7-c7ccc(F)c(Cl)c7)CC6)nn5)nn4)cc3C(=O)[O-])c3ccc(=[N+](C)C)cc-3oc2c1

>  <pKi>
9.82

$$$$

----------
Hi! I'm sharing some pKi results obtained with UniProt P08172.
pKi: −log10 of the molar value.
REPORTED ENDPOINT: pKi

>  <SMILES CODE>
C#CCCCCCN1CCC(COC(=O)Nc2ccc(F)cc2-c2ccc(F)c(Cl)c2)CC1

>  <pKi>
7.89

$$$$

I: CN(C)c1ccc2c(-c3ccc(-c4cn(CCCCCn5cc(CCCCCCN6CCC(COC(=O)Nc7ccc(F)cc7-c7ccc(F)c(Cl)c7)CC6)nn5)nn4)cc3C(=O)[O-])c3ccc(=[N+](C)C)cc-3oc2c1
II: CN(C)c1ccc2c(-c3ccc(-c4cn(CCCCCn5cc(CCCCCN6CCC(OC(=O)Nc7ccc(F)cc7-c7ccc(F)c(Cl)c7)CC6)nn5)nn4)cc3C(=O)[O-])c3ccc(=[N+](C)C)cc-3oc2c1
// query When their pKi values are compared, which is larger, I or II ? Bench note: the answer is the label of the chosen record.
// result I
(I: 7.96, II: 7.59)

----------
Protein target, amino acids: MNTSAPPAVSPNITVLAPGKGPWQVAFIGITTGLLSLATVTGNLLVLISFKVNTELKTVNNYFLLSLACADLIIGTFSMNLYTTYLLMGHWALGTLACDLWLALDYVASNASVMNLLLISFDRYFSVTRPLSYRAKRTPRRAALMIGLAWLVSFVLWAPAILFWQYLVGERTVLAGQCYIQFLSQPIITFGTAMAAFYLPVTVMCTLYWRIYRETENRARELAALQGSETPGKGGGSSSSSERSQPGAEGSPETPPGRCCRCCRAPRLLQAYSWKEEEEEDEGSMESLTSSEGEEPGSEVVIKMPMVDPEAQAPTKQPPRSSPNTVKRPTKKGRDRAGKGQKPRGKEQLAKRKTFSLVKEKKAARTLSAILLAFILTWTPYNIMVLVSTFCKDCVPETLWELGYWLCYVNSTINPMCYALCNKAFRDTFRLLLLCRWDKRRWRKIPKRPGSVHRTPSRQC
pKi: −log10 of the molar value.
REPORTED ENDPOINT: pKi

P: NCCCCCCCCN1CCC(COC(=O)Nc2ccc(F)cc2-c2ccc(F)c(Cl)c2)CC1
Q: CN(C)c1ccc2c(-c3ccc(-c4cn(CCCCCn5cc(CCCCCN6CCC(OC(=O)Nc7ccc(F)cc7-c7ccc(F)c(Cl)c7)CC6)nn5)nn4)cc3C(=O)[O-])c3ccc(=[N+](C)C)cc-3oc2c1
R: C#CCCCCCN1CCC(OC(=O)Nc2ccc(F)cc2-c2ccc(F)c(Cl)c2)CC1
// query Arrange the 3 compounds by rising pKi, starting with the smallest. # list labels per requested ordering
// result Q, R, P
(Q: 8.39, R: 8.70, P: 9.46)

----------
# TGT: Muscarinic acetylcholine receptor M1 (Homo sapiens)
# TEST NAME: Binding affinity to saturated human muscarinic M1 expressed in CHO cells assessed as dissociation constant incubated for 2 hrs in presence of atropine by flow cytometry
# Type: cell-based
pKd: −log10 of the molar value.
REPORTED ENDPOINT: pKd

>  <SMILES CODE>
CC1(C)C(/C=C/C=C/C=C2/N(CCCCS(=O)(=O)O)c3ccccc3C2(C)C)=[N+](CCCCCC(=O)NCCCCCCCCN2CCC(OC(=O)Nc3ccc(F)cc3-c3ccc(F)c(Cl)c3)CC2)c2ccc(S(=O)(=O)[O-])cc21

>  <pKd>
8.19

$$$$
>  <SMILES CODE>
CN(C)c1ccc2c(-c3ccc(-c4cn(CCCCCn5cc(CCCCCCN6CCC(COC(=O)Nc7ccc(F)cc7-c7ccc(F)c(Cl)c7)CC6)nn5)nn4)cc3C(=O)[O-])c3ccc(=[N+](C)C)cc-3oc2c1

>  <pKd>
8.08

$$$$

----------
Ki, Muscarinic acetylcholine receptor M2 (Homo sapiens): measured values
REPORTED ENDPOINT: Ki (nM)

A: NCCCCCCN1CCC(OC(=O)Nc2ccc(F)cc2-c2ccc(F)c(Cl)c2)CC1
B: CN1/C(=C/C=C/C=C/C2=[N+](CCCCCC(=O)NCCCNCCCCCCN3CCC(COC(=O)Nc4ccc(F)cc4-c4ccc(F)c(Cl)c4)CC3)c3ccccc3C2(C)C)C(C)(C)c2ccccc21
// query Would you let me know which has the greater Ki value, A or B ? Kindly give the label for the entry you pick.
// result A
(A: 28 nM, B: 9.9 nM)
